Target: T1, cynomolgus monkey EpoR (cynoEpoR) (cynomolgus monkey, UniProt A0A2K5WKK4 25-250)
T1 construct: Soluble protein (coated in ELISA, analyte in SPR)
T1 sequence: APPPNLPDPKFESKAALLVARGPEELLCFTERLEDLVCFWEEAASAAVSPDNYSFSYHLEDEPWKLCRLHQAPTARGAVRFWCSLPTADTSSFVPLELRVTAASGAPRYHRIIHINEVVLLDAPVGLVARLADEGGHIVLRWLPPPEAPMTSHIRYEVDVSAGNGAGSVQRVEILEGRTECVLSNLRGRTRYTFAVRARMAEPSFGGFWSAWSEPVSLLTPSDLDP
Assay: SPR, Biacore T100; scFv-Fc captured on anti-human IgG Fc CM5 chip, EpoR as analyte; 1:1 fit;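 further: measured at 25 °C in HBS-EP buffer with 0.1 mg/ml BSA, flowed at 50 µl/min, 1 min association then dissociation (10 min human, 5 min cyno EpoR)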
ENDPOINT: kon (M⁻¹ s⁻¹)

>  <BINDER>
Mxb 13 (clone 13 scFv-Fc protein) (Fc fusion, Tested as scFv-Fc (maxibody) with an Fc derived from human IgG1) VH: QVQLQQSGGGVVQPGRSLRLSCAASGFTFSDYAMHWVRQAPGKGLEWVAVISNHGKSTYYADSVKGRFTISRDNSKHMLYLQMNSLRADDTALYYCARDIALAGDYWGQGTLVTVSA VL: DIQMTQSPSSLSASVGDRVTITCRASQSISSYLNWYQQLPGKVPKLLIYGASKLQSGVPSRFSGSGSGTDFTLTISSLQPEDFATYYCLQDYNYPLTFGPGTRLEIK

>  <ENDPOINT>
kon

>  <QUANTITATIVE_RESULT>
65000

$$$$
>  <BINDER>
Mxb 307 (clone 307 scFv-Fc protein) (Fc fusion, Tested as scFv-Fc (maxibody) with an Fc derived from human IgG1) VH: EVQLVESGGGLVQPGGSLRLSCAVSGFTFSKYWMTWVRQAPGKGLEWVANIKPDGSEKYYVESVKGRFTISRDNAKNSVYLQMNSVRAEDTAVYYCARVSRGGSFSDWGQGTMVTVSS VL: QSVLTQPPSASGSPGQSVTISCTGTSSDVGGYNYVSWYQQHPDKAPRLMIYDVNKRPSGVPDRFSGSKSGNTASLTVSGLQAEDEAHYYCNSYAGSNNWVFGGGTQLTVL

>  <ENDPOINT>
kon

>  <QUANTITATIVE_RESULT>
299000

$$$$
>  <BINDER>
Mxb 295 (clone 295 scFv-Fc protein) (Fc fusion, Tested as scFv-Fc (maxibody) with an Fc derived from human IgG1) VH: EVQLVESGGGLVQPGGSLRLSCAASGFTFSSYAMSWVRQAPGKGLEWVSGISGSGSSEGGTYYADSVKGRFTLSRDNSKNTLYLQMNSLRAEDTALYYCVKDRPSRYSFGYYFDYWGRGTLVTVSS VL: LPVLTQPPSVSVSPGQTASIACSGNKLGDKYVSWYQQKPGQSPLLVIYQDTKRPSGIPERFSGSNSGNTATLTISGTQAMDEADYYCQAWDSSTDVVFGGGTKLTVL

>  <ENDPOINT>
kon

>  <QUANTITATIVE_RESULT>
41000

$$$$
>  <BINDER>
Mxb 15 (clone 15 scFv-Fc protein) (Fc fusion, Tested as scFv-Fc (maxibody) with an Fc derived from human IgG1) VH: QVQLQESGPGLVRPSGTLSLTCAVSGGSIGSSNWWSWVRQAPGKGLEWIGEISQSGSTNYNPSLKGRVTISLDRSRNQLSLKLSSVTAADTAVYYCARQLRSIDAFDIWGPGTTVTVSA VL: SYVLTQPPSVSVSPGLTATITCSGDKLGDKYASWYQQKPGQSPVLVIYQDRKRPSGIPERFSGSNSGNTATLTISGTQAVDEADYYCQAWDSDTSYVFGTGTQLTVL

>  <ENDPOINT>
kon

>  <QUANTITATIVE_RESULT>
37000

$$$$
